Source of measurements: the supplement of paper PMC10567573

B1: ALDH8A1 (parent)
chain: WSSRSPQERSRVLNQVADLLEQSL

# Variants of: B1
# PROTOCOL: protein stability index of a GFP-peptide fusion (GPS, HEK-293T) (PSI 1-6); higher = more stable;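 note: lentivirally expressed fusions sorted by FACS into six bins by GFP to DsRed ratio, PSI derived from sequencing read proportions per bin multiplied by bin number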
# EXPERIMENTAL_SETUP: c terminus: a fixed tail appended
Form field: protein stability index (one value per entry).
Give a plain numeric answer without units written out.

Examples from the recorded data:
variant_notation=W1M recorded_number=3.06
variant_notation=E21F recorded_number=2.47
variant_notation=S5Q recorded_number=3.01

Exam item: Which protein stability index reading was recorded for the variant W1Q ?
Marked response: 3.28

Exam item: Which protein stability index reading was recorded for the variant P6A ?
Marked response: 2.13

Exam item: Which protein stability index reading was recorded for the variant E21M ?
Marked response: 2

Exam item: Which protein stability index reading was recorded for the variant P6G ?
Marked response: 2.85

Exam item: Which protein stability index reading was recorded for the variant Q22G ?
Marked response: 2.98

Exam item: Which protein stability index reading was recorded for the variant L20Y ?
Marked response: 3.37

Exam item: Which protein stability index reading was recorded for the variant E21Y ?
Marked response: 1.71

Exam item: Which protein stability index reading was recorded for the variant Q15M ?
Marked response: 1.67
